Catalogue of compounds with associated Efficacy
Test system: Oocyte
assayExplanation: Agonist activity at recombinant rat GluN1a/GluN2A receptor expressed in Xenopus laevis oocytes assessed as increase in glycine/glutamate-induced channel current at -40 mV holding potential by two-electrode voltage clamp method relative to glutamate
Assay type: cell-based
setupConditions: filed as agonist

N[C@H](C(=O)O)[C@@H]1C[C@]1(CS)C(=O)O ... 87%
C=CCOC[C@]1(C(=O)O)C[C@H]1[C@H](N)C(=O)O ... 73.9%
[N-]=[N+]=NC[C@]1(C(=O)O)C[C@H]1[C@H](N)C(=O)O ... 81.7%
CCCC[C@]1(C(=O)O)C[C@H]1[C@H](N)C(=O)O ... 65%
C[C@]1(C(=O)O)C[C@H]1[C@H](N)C(=O)O ... 99%

Please find the next compound below.
q: Give the reported Efficacy for this compound. "N[C@H](C(=O)O)[C@@H]1C[C@]1(CO)C(=O)O"
a: 91%

###

Test system: Oocyte
assayExplanation: Agonist activity at recombinant rat GluN1a/GluN2C receptor expressed in Xenopus laevis oocytes assessed as increase in glycine/glutamate-induced channel current at -40 mV holding potential by two-electrode voltage clamp method relative to control
Format: cell-based
setupConditions: filed as agonist
The entries below come with measured Efficacy values attached.
Kindly answer with a numeric value in %, unit omitted.

N[C@H](C(=O)O)[C@@H]1C[C@]1(CO)C(=O)O ... 98.2

q: Let me know recorded Efficacy for "C=CCOC[C@]1(C(=O)O)C[C@H]1[C@H](N)C(=O)O" , thanks.
a: 84.9

q: Give Efficacy for "[N-]=[N+]=NC[C@]1(C(=O)O)C[C@H]1[C@H](N)C(=O)O"
a: 62.7

q: Return Efficacy for the following molecule: "C[C@]1(C(=O)O)C[C@H]1[C@H](N)C(=O)O"
a: 90

q: # return recorded Efficacy for input "CCCC[C@]1(C(=O)O)C[C@H]1[C@H](N)C(=O)O"
a: 85

q: Quick one: give measured Efficacy for "N[C@H](C(=O)O)[C@@H]1C[C@]1(CS)C(=O)O"
a: 86
